# credit: PubChem BioAssay (NCI)

# System: HCC-2998 colon
# PROCEDURE TEXT: NCI-60 one-dose screen, 48 h
# CONDITION NOTES: 10 µM unless noted
About 83,000 compounds went through this panel and 20% of them were active in at least one assay; those are over-represented in the sample as a whole. Active and inactive are the calls of the source. The calls were made as follows: active = growth percent below 10; inactive = the rest.
Your response should consist of one outcome taken from active, inactive

Query :: What call does the record list for CCc1cccc(Cl)c1 ?
Result :: inactive

Query :: What call does the record list for COc1ccc(C(=O)CSc2nnc(-c3cc(-c4ccccc4)nc4ccccc34)o2)cc1 ?
Result :: inactive

Query :: What call does the record list for COc1ccc(-c2cc(-c3ccc(OC)c(OC)c3)nc(SCCCCCC(=O)NO)n2)cc1 ?
Result :: inactive

Query :: What call does the record list for C[C@@H]1C[C@H]2C(=O)O[C@@H](C)[C@H](NC(=O)[C@H](Cc3cc(F)cc(F)c3)NC(=O)Nc3ccc(Cl)cc3F)C(=O)N3C[C@H](O)C[C@H]3C(=O)N3CCN(C)C[C@H]3C(=O)N[C@@H](C)C(=O)N2C1 ?
Result :: inactive

Query :: What call does the record list for Nc1nnc(CSc2nnc3n(Cc4ccccc4)c(=O)c4c5c(sc4n23)CCCC5)s1 ?
Result :: inactive

Query :: What call does the record list for C#C[C@]1(O)CC[C@H]2[C@@H]3CC=C4c5nc(N)sc5CC[C@]4(C)[C@H]3CC[C@@]21C ?
Result :: inactive

Query :: What call does the record list for Cc1c(Cn2cc(COc3ccc(Br)cc3)nn2)c(C)c(Cn2cc(COc3ccc(Br)cc3)nn2)c(C)c1Cn1cc(COc2ccc(Br)cc2)nn1 ?
Result :: inactive

Query :: What call does the record list for C=C(C)[C@@H]1CC[C@]2(C)[C@H](CC=C3[C@@H]4[C@@H](C)[C@H](C)CC[C@]4(C(N)=O)CC[C@]32C)[C@@]1(C)CCC#N ?
Result :: active

Query :: What call does the record list for Cc1cnc(N)nc1OCCNC(=O)c1cccc(-c2ccc(S(=O)(=O)Nc3ccc4c(c3)N(C(=O)C3CC3)CCC4)cc2)c1 ?
Result :: inactive

Query :: What call does the record list for CCOC(=O)c1c[nH]c2cc(OCC3CC3)c(OCC3CC3)cc2c1=O ?
Result :: inactive

Query :: What call does the record list for CCOC(=O)c1nn(C2CCCCO2)c2ccc(NC(=O)Cn3nnc4ccccc43)cc12 (stereo not drawn) ?
Result :: inactive

Query :: What call does the record list for O=C(O)c1cccc(CN2CCN(c3cc4c(cc3F)c(=O)c(C(=O)O)cn4C3CC3)CC2)c1O ?
Result :: inactive

Query :: What call does the record list for CCN(CC)CCCOc1ccc2c(c1)O/C(=C\c1cccc(OC)c1)C2=O ?
Result :: inactive

Query :: What call does the record list for CCOc1ccccc1/C=N\Nc1ccc(S(=O)(=O)c2ccc(N/N=C/c3ccccc3OCC)cc2)cc1 ?
Result :: inactive

Query :: What call does the record list for COc1cc2c(c(OC)c1OC)-c1ccc(NNC(N)=S)c(=O)cc1[C@@H](NC(C)=O)CC2 ?
Result :: inactive

Query :: What call does the record list for COc1ncc(-c2ccc3nc(N)n(-c4ccccc4C(F)(F)F)c(=O)c3c2)cc1S(=O)(=O)Nc1ccc(F)cc1F ?
Result :: inactive

Query :: What call does the record list for O=C(Nc1cccc2ccccc12)c1cc2ccccc2cc1O ?
Result :: inactive

Query :: What call does the record list for Oc1ccc(N=Nc2nccs2)c(O)c1 ?
Result :: inactive
